Provenance of the data: ChEMBL document CHEMBL4339223

- Assayed System: Cannabinoid receptor 2 (Homo sapiens, UniProt P34972)
- Sequence (P34972 whole entry): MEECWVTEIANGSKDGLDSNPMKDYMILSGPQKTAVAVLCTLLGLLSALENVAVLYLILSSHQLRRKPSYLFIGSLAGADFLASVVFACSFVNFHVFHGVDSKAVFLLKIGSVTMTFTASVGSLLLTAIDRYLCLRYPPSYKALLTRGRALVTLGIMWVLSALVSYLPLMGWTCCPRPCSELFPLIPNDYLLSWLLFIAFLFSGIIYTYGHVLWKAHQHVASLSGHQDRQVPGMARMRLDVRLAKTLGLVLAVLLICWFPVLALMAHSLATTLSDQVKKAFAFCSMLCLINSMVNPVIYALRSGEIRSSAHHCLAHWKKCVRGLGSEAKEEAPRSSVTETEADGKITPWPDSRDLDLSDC
- Assay Procedure: Displacement of [3H]-CP55940 from human recombinant cannabinoid CB2 receptor expressed in HEK293 cell membranes incubated for 90 mins by Cheng-Prusoff equation analysis
Value Type: Ki (nM)
One number for each entry, in nM.

Take a look at these entries with their results.
>>> result_number("CCCCCCCN1C(=O)C2C3c4ccccc4C(c4cc(Cl)ccc43)C2C1=O (stereo not drawn)")
1740
>>> result_number("CCCCCCCNCC12c3ccccc3C(c3ccccc31)C1C(=O)NC(=O)C12 (stereo not drawn)")
1010
>>> result_number("CCCCCCN1C(=O)C2C3c4ccccc4C(c4ccccc43)C2C1=O (stereo not drawn)")
2060
>>> result_number("CCCCCCCN1C(=O)C2C3c4ccccc4C(c4ccccc43)C2C1=O (stereo not drawn)")
2010
>>> result_number("CCCCCCCOCC12c3ccccc3C(c3ccccc31)C1C(=O)NC(=O)C12 (stereo not drawn)")
230

Your task in this section: give Ki for each listed record.
1. CCCCCCCN1C(=O)C2C3c4ccccc4C(C)(c4ccccc43)C2C1=O (stereo not drawn)
2. CCCCCCCN1C(=O)C2C3c4ccccc4C(Cl)(c4ccccc43)C2C1=O (stereo not drawn)
3. CCCCCCN1C(=O)C2C3c4ccccc4C(C)(c4ccccc43)C2C1=O (stereo not drawn)
4. CCCCCCCCN1C(=O)C2C3c4ccccc4C(c4ccccc43)C2C1=O (stereo not drawn)

// result
980
2510
1010
2220

---

Answer each item with its documented pKi.
- Assayed System: Cannabinoid receptor 2 (Homo sapiens, UniProt P34972)
- Assay Procedure: Displacement of [3H]-CP55940 from human recombinant cannabinoid CB2 receptor expressed in HEK293 cell membranes incubated for 90 mins by Cheng-Prusoff equation analysis
pKi: −log10 of the molar value.

>>> result("CCCCCCCNCC12c3ccccc3C(c3ccccc31)C1C(=O)N(CCCCCCC)C(=O)C12 (centres undefined)")
"< 5.00"
>>> result("O=C1NC(=O)C2C3c4ccccc4C(c4ccccc43)C12 (centres undefined)")
"< 5.00"
>>> result("CCCCCCCN1C(=O)C2C3c4ccccc4C(Br)(c4ccccc43)C2C1=O (centres undefined)")
"< 5.00"

# context switch: different molecule, same pKi
// sample CCCCCCCOCC12c3ccccc3C(c3ccccc31)C1C(=O)N(CCCCCCC)C(=O)C12 (centres undefined) , its pKi was < 5.00
